Test system: SF-268 CNS
method: NCI-60 one-dose screen, 48 h (100 = growth as untreated, 0 = no growth, -100 = all killed)
experimental conditions: 10 µM unless noted
Compounds without any hit were thinned out: in the full panel of roughly 83,000, 20% have a hit.
Recorded growth by entry
Express it in %; write the number only.

Example entries and their recorded answers appear below.
- entry smiles: "Cn1c(=O)n(C)c2cc(CNCCNc3ccnc4cc(Cl)ccc34)ccc21"
  measurement target: "SF-268 CNS"
  growth / %: 97.9
- entry smiles: "Clc1ccc(Nc2nnc(-c3ccc4c(c3)OCO4)o2)cc1"
  measurement target: "SF-268 CNS"
  growth / %: 107
- entry smiles: "Nc1nc(Nc2cccc(F)c2)nc2ccccc12"
  measurement target: "SF-268 CNS"
  growth / %: 77.3
- entry smiles: "COc1ccc(-c2cc(=O)c3c(OC)c4ccoc4c(/C=C/C=O)c3o2)cc1"
  measurement target: "SF-268 CNS"
  growth / %: 36.2
- entry smiles: "O=c1oc2ccc(F)cc2c(=O)n1-c1ccc(F)cc1F"
  measurement target: "SF-268 CNS"
  growth / %: 15

Now let's try a different one.
Q: Recorded growth for COc1ccc2sc(N(Cc3cccnc3)C(=O)c3ccc(C#N)cc3)nc2c1 with SF-268 CNS, please?
Ans: 87.7
